Ref: PubChem BioAssay (NCI)

- Tested on: KM12 colon
- protocol summary: NCI-60 one-dose screen, 48 h
- run conditions: 10 µM unless noted
About 83,000 compounds went through this panel and 20% of them were active in at least one assay; those are over-represented in the sample as a whole. Calls of active or inactive are those of the source. The calls were made as follows: active = growth percent below 10; inactive = the rest.
Classes to choose from: label 1 = active, label 0 = inactive

These solved cases illustrate the format of a correct answer.
[
  {
    "compound": "Cc1ccc(Cn2c(-c3cccs3)nc3ccccc32)cc1",
    "tested target": "KM12 colon",
    "group": "label 0"
  },
  {
    "compound": "O=C(O)C(=Cc1c2ccccc2cc2ccccc12)C(=O)O",
    "tested target": "KM12 colon",
    "group": "label 0"
  }
]

Q. Could you kindly confirm the outcome this assay logged for COc1ccc(C(=O)/C=C/c2cccc([N+](=O)[O-])c2)c(OC)c1 ?
A. label 0

Q. // outcome(item) with item = CC(Br)C(O)c1cc2c(cc1Br)OCO2 (configuration not stated)
A. label 0

Q. State the result this test recorded for COc1cc(C2C=C(C)N=C3SC=C(C)N32)cc(OC)c1OC (configuration not stated) .
A. label 1

Q. What did the test return for COc1cc(NC(=O)CSc2nc3ccc(C)cc3c(=O)n2-c2ccccc2)cc(OC)c1OC ?
A. label 0

Q. For this compound, state the assay outcome: COc1cccc(C2CC(=O)Nc3c2c(C)nn3-c2nc3ccccc3[nH]2)c1OC (configuration not stated)
A. label 0

Q. Give the logged outcome of this assay for the following compound: O=[N+]([O-])c1cccc(-c2cc(-c3cc(Br)ccc3O)[nH]n2)c1
A. label 0

Q. Per the assay record, what outcome was assigned to Cn1cc(C=O)c2ccccc21 ?
A. label 0

Q. Returns: the outcome recorded for CCNCc1ccncc1 in this assay.
A. label 0

Q. Give the logged outcome of this assay for the following compound: COc1ccc(OC)c(C(=O)c2oc3ccc(Br)cc3c2N)c1
A. label 0

----------
- System: RXF 393 renal
- protocol summary: NCI-60 one-dose screen, 48 h
- run conditions: 10 µM unless noted
About 83,000 compounds went through this panel and 20% of them were active in at least one assay; those are over-represented in the sample as a whole. Activity calls are given as the source filed them. How the source made its calls: active means growth percent below 10; inactive means the rest.
Answer with one of the outcomes given here: TRUE (active), FALSE (inactive)

Use these answered entries as a reference point.
[
  {
    "structure string": "COc1ccc(/C=C/C(=O)c2ccc(NC(=O)CN3CCN(c4cc5c(cc4F)c(=O)c(C(=O)O)cn5C4CC4)CC3)cc2)cc1",
    "group": "FALSE"
  },
  {
    "structure string": "N#Cc1c(NC(=O)c2ccc([N+](=O)[O-])o2)[n+]([O-])c2cc(F)c(F)cc2[n+]1[O-]",
    "group": "TRUE"
  }
]

Q. GET /call?item= COc1cc(-c2cc(/C=C3\CCCCC3=O)[nH]n2)cc(OC)c1OC returns the recorded outcome of this test.
A. FALSE

Q. Entry Cc1sc2nc(CSc3nnc(-c4ccco4)o3)[nH]c(=O)c2c1C : call = ?
A. FALSE

Q. What call does the record list for CC(=O)n1cc([C@H]2CC[C@H](c3cn(C(C)=O)c4ccccc34)c3c2[nH]c2ccccc32)c2ccccc21 ?
A. FALSE

----------
- Tested on: RXF 393 renal
- protocol summary: NCI-60 one-dose screen, 48 h (100 = growth as untreated, 0 = no growth, -100 = all killed)
- run conditions: 10 µM unless noted
About 83,000 compounds went through this panel and 20% of them were active in at least one assay; those are over-represented in the sample as a whole.
measured endpoint: growth (%)
Numeric answer only, unit % assumed.

Examples with their reported growth follow.
[
  {
    "molecule": "CS(=O)(=O)N(c1cc(-c2ccc3ncnc(Nc4cccc(Cl)c4)c3c2)cnc1Cl)S(C)(=O)=O",
    "growth (%)": -20.1
  },
  {
    "molecule": "CSc1ccccc1C#C/C=C\\C#Cc1ccccc1N1CCCC1=O",
    "growth (%)": 52.9
  },
  {
    "molecule": "COc1ccc(/C=C/C(=O)/C=C/c2cc3ccc(Cl)cc3[nH]c2=O)cc1",
    "growth (%)": 86.9
  }
]

Q. So what's the measured growth for this one? COc1ccc2c(c1)C(=O)/C(=C/c1ccc(O)cc1)O2
A. -59.9

Q. For the molecule CCO/C=N/NC(=O)c1ccncc1 , what growth is on record?
A. 109

Q. # growth lookup, item NC(N)=NC(N)=Nc1ccccc1-c1ccccc1
A. 112

Q. Quick check: growth of COc1cc2c3c(c(=O)oc2cc1OS(=O)(=O)c1ccc(C(F)(F)F)cc1)CCCCC3 ?
A. 30.1

Q. What growth value was documented for this molecule, Cn1cc(C=O)c2ccccc21 ?
A. 105

Q. Form field: reported growth of Clc1ccc2c(c1)NC1(CCSc3ccccc31)n1nccc1-2 (configuration not stated)
A. 119

Q. I have this molecule here, CCNc1nc(N2CC(=O)Nc3cc(OC)ccc32)c2ccccc2n1 , and I need its recorded growth.
A. 33.7

Q. Data request, read-out growth, for COc1ccc(/C=C/C(=O)c2ccc(B(O)O)cc2)cc1O
A. 81.4

Q. Can you share its growth? I mean this molecule: Clc1nc(-c2cccnc2)nc2sc3c(c12)CCCCCC3
A. 116

----------
- Test system: SF-295 CNS
- protocol summary: NCI-60 one-dose screen, 48 h (100 = growth as untreated, 0 = no growth, -100 = all killed)
- run conditions: 10 µM unless noted
About 83,000 compounds went through this panel and 20% of them were active in at least one assay; those are over-represented in the sample as a whole.
measured endpoint: growth (%)
Write the value in % as a bare number.

Some solved entries appear below for comparison.
[
  {
    "compound": "NCCSC(c1ccccc1)(c1ccccc1)c1ccccc1",
    "growth (%)": -45.9
  },
  {
    "compound": "C=CCN=C1NC(=O)/C(=C/c2cc(C(C)(C)C)c(O)c(C(C)(C)C)c2)S1",
    "growth (%)": 69.3
  },
  {
    "compound": "COc1cc2c(cc1OCCCCn1c(-c3cc(=O)c4ccccc4o3)nc3ccccc31)N=C[C@@H]1CCCN1C2=O",
    "growth (%)": 113
  }
]

Q. Data request, read-out growth, for COc1ccc(NC(=O)CSc2nc3ccccc3c(=O)n2-c2ccccc2C(F)(F)F)c(OC)c1OC
A. 94.2

Q. // query growth value for entry COc1ccc(-c2nc3sccn3c2-c2ccnc(NCCCNS(=O)(=O)c3ccc(F)cc3)n2)cc1
A. 12.9

Q. So what's the measured growth for this one? O=c1oc2cc(OS(=O)(=O)c3ccccc3)c(Cl)cc2c2c1CCCCCC2
A. 92.6

Q. For the compound Cc1c(C2=NNC(c3ccc4c(c3)OCO4)C2)[n+]([O-])c2ccccc2[n+]1[O-] (stereo unspecified) , what growth is on record?
A. 105

Q. For COC(=O)CCCCCN=Cc1c(O)c(O)c(C(C)C)c2cc(C)c(-c3c(C)cc4c(C(C)C)c(O)c(O)c(C=NCCCCCC(=O)OC)c4c3O)c(O)c12 , what is its reported growth?
A. 9.3

Q. // lookup growth for O=C(Nc1ccc(F)c(Cl)c1)c1n[nH]c(=O)c2ccccc12
A. 84.8

----------
- Test system: HT29 colon
- protocol summary: NCI-60 one-dose screen, 48 h (100 = growth as untreated, 0 = no growth, -100 = all killed)
- run conditions: 10 µM unless noted
About 83,000 compounds went through this panel and 20% of them were active in at least one assay; those are over-represented in the sample as a whole.
Parameter threshold = 70%. Response is 1 when growth meets or exceeds it, else 0.

[
  {
    "molecule": "Cc1oc2nc[nH]c(=O)c2c1C(=O)/C=C/c1ccc(Cl)cc1Cl",
    "group": 0
  },
  {
    "molecule": "C=C1C(=O)O[C@H]2[C@H]1CC/C(COC(=O)NCCc1ccc(OC)cc1)=C\\CC[C@@]1(C)O[C@@H]21",
    "group": 0
  },
  {
    "molecule": "COc1ncc(-c2ccc3ncnc(Nc4cccc(Cl)c4)c3c2)cc1NS(=O)(=O)C1CC1",
    "group": 0
  },
  {
    "molecule": "O=C(CSc1nc(-c2ccc(Cl)cc2)cn1-c1ccc(Cl)cc1)c1ccc(Br)cc1",
    "group": 0
  },
  {
    "molecule": "COc1cc(-c2n[nH]nc2-c2ccc3c(c2)OCCO3)cc(OC)c1OC",
    "group": 0
  },
  {
    "molecule": "CC(Br)C(OC(=O)c1ccccc1Cl)c1cc2c(cc1Br)OCO2 (centres undefined)",
    "group": 1
  }
]

Q. Record CC[C@]1(O)C[C@@H]2CN(Cc3c([nH]c4ccccc34)[C@@](C(=O)OC)(c3cc4c(cc3OC)N(C)[C@H]3[C@@](O)(C(=O)OC)[C@H](OC(C)=O)[C@]5(CC)[C@@H]6C[C@@H]6CN6CC[C@]43[C@@H]65)C2)C1 ; criterion: growth no lower than 70%. Met?
A. 0

Q. Record CCC(C)NCC(=O)O (centres undefined) ; criterion: growth no lower than 70%. Met?
A. 1

Q. Dear colleague, could you confirm whether O=S(=O)(NCCCNc1cc(-c2cn(-c3ccccc3)nc2-c2cccc(O)c2)ccn1)c1ccc(Cl)cc1 has growth at or above 70%?
A. 0

Q. Assess whether reported growth for C=C1C(=O)O[C@H]2[C@H]1CC/C(COC(=O)NCc1ccc(OC)cc1)=C\CC[C@@]1(C)O[C@@H]21 sits at 70% or higher.
A. 0

Q. Is it the case that CC1CCc2c(sc(NC(=O)CSc3nnc4ccccn34)c2C(N)=O)C1 (centres undefined) has growth reaching or exceeding 70%?
A. 1

Q. Hi, just wondering whether COc1ccc(C2CC(c3cccs3)=NN2c2ccc(S(=O)(=O)NC(=O)Nc3ccc(C)cc3)cc2)cc1 (centres undefined) shows growth of 70% or higher.
A. 1

Q. Assess whether reported growth for Nc1c(C(=O)Nc2c(Cl)cccc2Cl)sc2nc3c(cc12)CCCCC3 sits at 70% or higher.
A. 0

Q. Does growth meet or surpass 70% for COc1cc(C(=O)OCCCCCCCCCCC[P+](c2ccccc2)(c2ccccc2)c2ccccc2)ccc1O ?
A. 0
